- Tested on: 769-P
- Experimental Details: Cytotoxicity against human 769-P cells after 48 hrs by MTT assay
- Assay type: functional, cell-based
Measure: log10 IC50 (log10 of the value in µM)
Quick note: numbers are log10 of IC50, with µM as the unit.

Solved cases below.
So, CCCCn1c2ccccc2c2cc(C(=O)OCCCCCCOC(=O)c3cc4c5ccccc5n(CCCC)c4c(C)n3)nc(C)c21 ? Its log10 IC50 was 1.78

So, COc1cc(-c2nc(C(=O)OCCCCCCOC(=O)c3cc4c5ccccc5n(CCCc5ccccc5)c4c(-c4cc(OC)c(OC)c(OC)c4)n3)cc3c4ccccc4n(CCCc4ccccc4)c23)cc(OC)c1OC ? Its log10 IC50 was 2.07

So, CCn1c2ccccc2c2cc(C(=O)OCCCCCCCCCOC(=O)c3cc4c5ccccc5n(CC)c4c(C)n3)nc(C)c21 ? Its log10 IC50 was 1.01

Below are 4 molecules. Give each one its log10 IC50.
1. O=C(OCCCCCCOC(=O)c1cc2c3ccccc3n(CCCc3ccccc3)c2cn1)c1cc2c3ccccc3n(CCCc3ccccc3)c2cn1
2. CCCCn1c2ccccc2c2cc(C(=O)OCCCCCCCCCOC(=O)c3cc4c5ccccc5n(CCCC)c4cn3)ncc21
3. CCCCn1c2ccccc2c2cc(C(=O)O)ncc21
4. O=C(OCCCCCCOC(=O)c1cc2c3ccccc3n(Cc3cccc(Cl)c3)c2cn1)c1cc2c3ccccc3n(Cc3cccc(Cl)c3)c2cn1

result:
[1.47, 2.06, 1.63, 1.34]

So, Cc1nc(C(=O)OCCCCCCOC(=O)c2cc3c4ccccc4n(C)c3c(C)n2)cc2c3ccccc3n(C)c12 ? Its log10 IC50 was 1.45
